biological target: recombinant human IL-13 (human, UniProt P35225 35-146); experiment: cell-based or functional assay
Sequence (P35225 35-146 limits assumed): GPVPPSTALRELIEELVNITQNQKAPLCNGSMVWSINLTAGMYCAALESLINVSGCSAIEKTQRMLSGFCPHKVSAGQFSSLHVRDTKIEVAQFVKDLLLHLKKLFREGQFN
test-readout: IC50 CD23 (nM)
Provide only the numeric value, understood in nM.

Some binders with recorded IC50 CD23:
BDG38.080 (antibody, V domains shown, IgG1) VH: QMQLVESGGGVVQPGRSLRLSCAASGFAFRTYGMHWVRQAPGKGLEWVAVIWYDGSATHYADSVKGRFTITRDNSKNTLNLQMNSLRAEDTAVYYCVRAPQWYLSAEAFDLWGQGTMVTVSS VL: SYVLTQPPSVSVAPGETATITCGGNLIGAYLVHWYQQKPGQAPVLVIYDDSDRPDRIPERFSGSNSGNTATLTISRVEAGDEADYYCQVWDHNTNHMVFGGGTKLTVL :: 0.201
BDG38.094 (antibody, V domains shown, IgG1) VH: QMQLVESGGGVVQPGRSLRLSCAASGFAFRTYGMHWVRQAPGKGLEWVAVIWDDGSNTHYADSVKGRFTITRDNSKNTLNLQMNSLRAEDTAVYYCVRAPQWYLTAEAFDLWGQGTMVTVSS VL: SYVLTQPPSVSVAPGETASITCGGNLIGAYLVHWYQQKPGQAPLLVIYDDVDRPARIPERFSGSNSGNTATLTISRVEAGDEADYYCQVWDHNSNHMVFGGGTKLTVL :: 0.172
BDG38.075 (antibody, V domains shown, IgG1) VH: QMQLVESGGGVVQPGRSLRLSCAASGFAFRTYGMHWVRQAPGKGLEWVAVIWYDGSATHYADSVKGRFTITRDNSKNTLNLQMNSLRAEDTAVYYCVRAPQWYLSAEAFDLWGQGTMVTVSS VL: SYVLTQPPSVSVAPGETATITCGGNLIGAYLVHWYQQKPGQAPVLVIYDDVDRPARIPERFSGSNSGNTATLTISRVEAGDEADYYCQVWDHDTNTMVFGGGTKLTVL :: 0.0975
BDG38.128 (antibody, V domains shown, IgG1) VH: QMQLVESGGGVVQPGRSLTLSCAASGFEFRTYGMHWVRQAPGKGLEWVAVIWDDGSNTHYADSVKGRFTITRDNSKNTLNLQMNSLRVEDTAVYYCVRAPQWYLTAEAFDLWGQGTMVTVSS VL: SYILTQPPSVSVAPGETATITCGGNLIGAKLVHWYQQKPGQAPVLVIYDDSDRPSRIPERFSGSNSGNTATLTISDVEEGDEADYYCQVWDYYADTMVFGGGTKLTVL :: 0.0149

Return reported IC50 CD23; argument: BDG38.132 (antibody, V domains shown, IgG1) VH: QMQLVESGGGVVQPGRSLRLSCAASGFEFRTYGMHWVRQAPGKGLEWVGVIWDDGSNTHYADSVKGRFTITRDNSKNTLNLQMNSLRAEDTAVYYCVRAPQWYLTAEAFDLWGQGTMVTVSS VL: SYILTQPPSVSVAPGETATITCGGNLIGARLVHWYQQKPGQAPVLVIYDDSDRPSRIPERFSGSNIGNTATLTISRVEAGDEADYYCQVWDYSSDHMVFGGGTKLTVL
0.43
